What pIC50 was measured for each of the following?
Schema: pIC50 number; meaning minus log10 of the concentration expressed in molar units.

IN: Lab note: need pIC50 with Superoxide dismutase [Cu-Zn], SOD1 (Homo sapiens) for entry Cn1nc2cc1CNCCNCCNCc1cc(n(C)n1)CNCCNCCNC2 , please look it up.
OUT: 4.02

IN: Record c1c2n[nH]c1CNCCN1CCNCc3cc(n[nH]3)CNCCN(CCNC2)CCNCc2cc([nH]n2)CNCC1 : what is its pIC50 with Superoxide dismutase [Cu-Zn], SOD1 (Homo sapiens)?
OUT: 3.56

IN: // map CCCCCCCCN1CCNCc2cc([nH]n2)CNCCN(CCCCCCCC)CCNCc2cc(n[nH]2)CNCC1 to recorded pIC50 (system: Superoxide dismutase [Cu-Zn], SOD1 (Homo sapiens))
OUT: 4.05
